The reported numbers originate from patent US11371056B2.

For each entry below, report its Turnover value.
- Tested on: Pseudomonas fluorescens HPPD polypeptide (wild-type and mutants)
- procedureDetails: Coupled HPPD activity assay: turnover and residual turnover in crude HPPD polypeptide extracts with and without Cmpd. 1
- Assay type: biochemical
- condition: absence of Cmpd. 1; changes in absorbance (OD) at 320 nm in the coupled assay, 30 min
Note: the reply should be a number with no unit written.

Field Turnover (entry SEQ ID NO:5 (protein, mutant HPPD polypeptide) MADLYENPMGLMGFEFIEFASPTPGTLEPIFEIMGFTKVATHRSKNVHLYRQGEINLILNNEPNSIASYFAAEHGPSVCGMAFRVKDSQKAYNRALELGAQPIHIDTGPMELNLPAIKGIGGAPLYLIDRFGEGSSIYDIDFVYLEGVERNPVGAGLKVIDHLTHNVYRGRMVYWANFYEKLFNFREARYFDIKGEYTGLTSKAMSAPDGMIRIPLNEESSKGAGQIEEFLMQFNGEGIQHVAFLTDDLVKTWDALKKIGMRFMTAPGDEYYEMLEGRLPDHGEPVDQLQARGILLDGSSVEGDKRLLLQIFSERLMGPVFFEFIQRKGDDGFGPDSFKVLFESIERDQVRRGVLTAD ) reads 0.162

Field Turnover (entry SEQ ID NO:55 (protein, mutant HPPD polypeptide) MADLYENPMGLMGFEFIEFASPTPGTLEPIFEIMGFTKVATHRSKNVHLYRQGEINLILNNEPNSIASYFAAEHGPSVCGMAFRVKDSQKAYNRALELGAQPIHIDTGPMELNLPAIKGIGGAPLYLIDRFGEGSSIYDIDFVYLEGVERNPVGAGLKVIDHLTHNVYRGRMVYWANFYEKLFNFREARYFDIKGEYTGLTSKAMSAPDGMIRIPLNEESSKGAGQIEEFLMQFNGEGIQHVAFLTDDLVKTWDALKKIGMRFLTAPGDEYYEMLEGRLPDHGEPVDQLQARGILLDGSSVEGDKRLLLQIFSEKLMGPVFFEFIQRKGDDGFGPHSFKVLFESMERDQVRRGVLTAD ) reads 0.303

Field Turnover (entry SEQ ID NO:40 (protein, mutant HPPD polypeptide) MADLYENPMGLMGFEFIEFASPTPGTLEPIFEIMGFTKVATHRSKNVHLYRQGEINLILNNEPNSIASYFAAEHGPSVCGMAFRVKDSQKAYNRALELGAQPIHIDTGPMELNLPAIKGIGGAPLYLIDRFGEGSSIYDIDFVYLEGVERNPVGAGLKVIDHLTHNVYRGRMVYWANFYEKLFNFREARYFDIKGEYTGLTSKAMSAPDGMIKIPLNEESSKGAGQIEEFLMQFNGEGIQHVAFLTDDLVKTWDALKKIGMRFMTAPGDEYYEMLEGRLPDHGEPVDQLQARGILLDGSSVEGDKRLLLQIFSEQLMGPVFFEFIQRKGDDGFGPDSFKVLFESMERDQVRRGVLTAD ) reads 0.204

Field Turnover (entry SEQ ID NO:45 (protein, mutant HPPD polypeptide) MADLYENPMGLMGFEFIEFASPTPGTLEPIFEIMGFTKVATHRSKNVHLYRQGEINLILNNEPNSIASYFAAEHGPSVCGMAFRVKDSQKAYNRALELGAQPIHIDTGPMELNLPAIKGIGGAPLYLIDRFGEGSSIYDIDFVYLEGVERNPVGAGLKVIDHLTHNVYRGRMVYWANFYEKLFNFREARYFDIKGEYTGLTSKAMSAPDGMIKIPLNEESSKGAGQIEEFLMQFNGEGIQHVAFLTDDLVKTWDALKKIGMRFMTAPGDEYYEMLEGRLPDHGEPVDQLQARGILLDGSSVEGDKRLLLQIFSETLMGPVFFEFIQRKGDDGFGPHSFKVLFESMERDQVRRGVLTAD ) reads 0.275

Field Turnover (entry SEQ ID NO:42 (protein, mutant HPPD polypeptide) MADLYENPMGLMGFEFIEFASPTPGTLEPIFEIMGFTKVATHRSKNVHLYRQGEINLILNNEPNSIASYFAAEHGPSVCGMAFRVKDSQKAYNRALELGAQPIHIDTGPMELNLPAIKGIGGAPLYLIDRFGEGSSIYDIDFVYLEGVERNPVGAGLKVIDHLTHNVYRGRMVYWANFYEKLFNFREARYFDIKGEYTGLTSKAMSAPDGMIKIPLNEESSKGAGQIEEFLMQFNGEGIQHVAFLTDDLVKTWDALKKIGMRFMTAPGDEYYEMLEGRLPDHGEPVDQLQARGILLDGSSVEGDKRLLLQIFSETLMGPVFFEFIQRKGDDGFGPDSFKVLFESMERDQVRRGVLTAD ) reads 0.209

Field Turnover (entry SEQ ID NO:34 (protein, mutant HPPD polypeptide) MADLYENPMGLMGFEFIEFASPTPGTLEPIFEIMGFTKVATHRSKNVHLYRQGEINLILNNEPNSIASYFAAEHGPSVCGMAFRVKDSQKAYNRALELGAQPIHIDTGPMELNLPAIKGIGGAPLYLIDRFGEGSSIYDIDFVYLEGVERNPVGAGLKVIDHLTHNVYRGRMVYWANFYEKLFNFREARYFDIKGEYTGLTSKAMSAPDGMIRIPLNEESSKGAGQIEEFLMQFNGEGIQHVAFLTDDLVKTWDALKKIGMRFMTAPGDEYYEMLEGRLPDHGEPVDQLQARGILLDGSSVEGDKRLLLQIFSETLMGPVFFEFIQRKGDDGFGPHSFKVLFESMERDQVRRGVLTAD ) reads 0.278

Field Turnover (entry SEQ ID NO:43 (protein, mutant HPPD polypeptide) MADLYENPMGLMGFEFIEFASPTPGTLEPIFEIMGFTKVATHRSKNVHLYRQGEINLILNNEPNSIASYFAAEHGPSVCGMAFRVKDSQKAYNRALELGAQPIHIDTGPMELNLPAIKGIGGAPLYLIDRFGEGSSIYDIDFVYLEGVERNPVGAGLKVIDHLTHNVYRGRMVYWANFYEKLFNFREARYFDIKGEYTGLTSKAMSAPDGMIKIPLNEESSKGAGQIEEFLMQFNGEGIQHVAFLTDDLVKTWDALKKIGMRFMTAPGDEYYEMLEGRLPDHGEPVDQLQARGILLDGSSVEGDKRLLLQIFSEKLMGPVFFEFIQRKGDDGFGPHSFKVLFESMERDQVRRGVLTAD ) reads 0.291
